Target Desc: Tyrosine-protein kinase ABL1 (Homo sapiens)
Sequence (P00519 whole entry): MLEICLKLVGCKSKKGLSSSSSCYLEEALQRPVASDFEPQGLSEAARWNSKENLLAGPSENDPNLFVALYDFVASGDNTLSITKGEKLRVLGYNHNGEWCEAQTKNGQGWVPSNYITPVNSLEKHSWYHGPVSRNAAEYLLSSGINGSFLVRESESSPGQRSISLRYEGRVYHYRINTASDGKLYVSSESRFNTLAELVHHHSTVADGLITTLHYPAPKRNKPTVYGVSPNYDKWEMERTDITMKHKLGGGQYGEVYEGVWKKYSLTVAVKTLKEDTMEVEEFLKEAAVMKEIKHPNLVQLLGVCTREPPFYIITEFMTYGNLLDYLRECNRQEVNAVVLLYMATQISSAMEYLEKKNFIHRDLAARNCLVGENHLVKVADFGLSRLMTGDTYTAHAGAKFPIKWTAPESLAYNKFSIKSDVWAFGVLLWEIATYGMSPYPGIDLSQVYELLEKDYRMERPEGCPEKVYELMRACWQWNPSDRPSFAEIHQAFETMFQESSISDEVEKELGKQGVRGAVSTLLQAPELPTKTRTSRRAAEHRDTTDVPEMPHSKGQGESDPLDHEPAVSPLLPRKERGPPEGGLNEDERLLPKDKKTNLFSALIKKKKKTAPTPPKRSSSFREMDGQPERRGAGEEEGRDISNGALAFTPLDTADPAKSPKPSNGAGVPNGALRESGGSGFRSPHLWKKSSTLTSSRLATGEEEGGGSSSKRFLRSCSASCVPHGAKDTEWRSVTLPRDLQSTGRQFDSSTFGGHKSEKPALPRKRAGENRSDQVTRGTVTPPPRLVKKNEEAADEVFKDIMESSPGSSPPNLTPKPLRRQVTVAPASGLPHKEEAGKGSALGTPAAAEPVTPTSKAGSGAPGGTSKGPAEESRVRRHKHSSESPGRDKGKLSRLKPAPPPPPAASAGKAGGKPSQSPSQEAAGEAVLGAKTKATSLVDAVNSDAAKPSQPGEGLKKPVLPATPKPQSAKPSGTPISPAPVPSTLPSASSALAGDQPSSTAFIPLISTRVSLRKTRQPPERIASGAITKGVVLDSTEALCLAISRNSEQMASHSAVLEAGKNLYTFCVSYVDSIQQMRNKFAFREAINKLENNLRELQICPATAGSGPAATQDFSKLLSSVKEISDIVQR
Readout Type: IC50

## Input // output IC50; input CC(c1cc2cc(-c3cnn(C)c3)cnc2cc1F)n1nnc2ncc(-c3cnn(CCO)c3)nc21 (stereo in doubt; 14) ; system Tyrosine-protein kinase ABL1 (Homo sapiens)
## Output > 30 µM

* * *

Target Desc: Proto-oncogene tyrosine-protein kinase receptor Ret (Homo sapiens)
Sequence (P07949 whole entry): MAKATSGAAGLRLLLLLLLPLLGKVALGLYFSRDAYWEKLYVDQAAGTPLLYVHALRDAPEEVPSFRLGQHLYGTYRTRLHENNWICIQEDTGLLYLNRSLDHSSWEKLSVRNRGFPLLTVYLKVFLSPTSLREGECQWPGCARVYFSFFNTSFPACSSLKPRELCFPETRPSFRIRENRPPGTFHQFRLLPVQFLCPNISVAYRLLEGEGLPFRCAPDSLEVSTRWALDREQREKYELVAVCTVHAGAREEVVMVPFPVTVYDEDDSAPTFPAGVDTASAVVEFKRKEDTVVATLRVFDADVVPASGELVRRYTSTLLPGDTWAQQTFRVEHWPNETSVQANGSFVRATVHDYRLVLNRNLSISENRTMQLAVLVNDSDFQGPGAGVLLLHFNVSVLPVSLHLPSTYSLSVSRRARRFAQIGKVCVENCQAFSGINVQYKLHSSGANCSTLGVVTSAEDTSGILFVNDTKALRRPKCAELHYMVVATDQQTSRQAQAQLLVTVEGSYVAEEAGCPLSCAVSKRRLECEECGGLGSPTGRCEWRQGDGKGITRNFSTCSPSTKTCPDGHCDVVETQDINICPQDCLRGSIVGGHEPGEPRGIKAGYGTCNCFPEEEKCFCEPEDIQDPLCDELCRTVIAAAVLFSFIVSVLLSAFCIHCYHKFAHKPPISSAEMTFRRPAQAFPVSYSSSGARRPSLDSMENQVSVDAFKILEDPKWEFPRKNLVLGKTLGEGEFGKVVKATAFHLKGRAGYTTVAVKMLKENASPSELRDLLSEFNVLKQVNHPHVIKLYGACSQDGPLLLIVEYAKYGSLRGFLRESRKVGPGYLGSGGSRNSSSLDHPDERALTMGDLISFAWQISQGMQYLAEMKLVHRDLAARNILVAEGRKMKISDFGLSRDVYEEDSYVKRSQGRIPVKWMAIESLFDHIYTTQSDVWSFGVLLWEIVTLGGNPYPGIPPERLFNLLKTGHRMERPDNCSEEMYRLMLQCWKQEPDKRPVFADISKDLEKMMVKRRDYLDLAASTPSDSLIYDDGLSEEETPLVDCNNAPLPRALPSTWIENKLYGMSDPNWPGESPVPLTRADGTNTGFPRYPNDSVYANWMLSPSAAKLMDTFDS
Readout Type: IC50

## Input // output IC50; input CC(c1cc2cc(-c3cnn(C)c3)cnc2cc1F)n1nnc2ncc(-c3cnn(CCO)c3)nc21 (stereo in doubt; 14) ; system Proto-oncogene tyrosine-protein kinase receptor Ret (Homo sapiens)
## Output > 30 µM

* * *

# maps each entry to its remaining at 0.5 h, 1 µM
Assay Method Text: Drug recovery in monkey liver microsomes at 1 uM measured after 30 mins by LC-MS/MS analysis
Field: numeric (%). Do not append units.

[
  {
    "Compound": "CC(c1cc2cc(-c3cnn(C)c3)cnc2cc1F)n1nnc2ncc(-c3cnn(C)c3)nc21 (centres undefined)",
    "Unit Annotation": "%",
    "remaining at 0.5 h, 1 µM": 65
  },
  {
    "Compound": "CC(c1cc2cc(-c3cnn(C)c3)cnc2cc1F)n1nnc2ncc(-c3ccncc3)nc21 (centres undefined)",
    "Unit Annotation": "%",
    "remaining at 0.5 h, 1 µM": 103
  },
  {
    "Compound": "CC(c1ccc2ncc(-c3ccc(F)cc3)cc2c1)n1nnc2ncc(-c3cnn(C)c3)nc21 (centres undefined)",
    "Unit Annotation": "%",
    "remaining at 0.5 h, 1 µM": 109
  }
]

## Input Name the recorded remaining at 0.5 h, 1 µM of the compound listed here: CC(c1c(F)cc2ncc(-c3cnn(C)c3)cc2c1F)n1nnc2ncc(-c3ccc(C(N)=O)c(F)c3)nc21 (centres undefined)
## Output 99

## Input Name the recorded remaining at 0.5 h, 1 µM of the compound listed here: CC(c1ccc2ncc(-c3cnn(C)c3)cc2c1)n1nnc2ncc(-c3ccc(C(N)=O)c(F)c3)nc21 (centres undefined)
## Output 98

## Input Name the recorded remaining at 0.5 h, 1 µM of the compound listed here: CC(c1ccc2ncc(-c3cnn(C)c3)cc2c1)n1nnc2ncc(-c3cnn(CCO)c3)nc21 (centres undefined)
## Output 108

* * *

Assay Method Text: Cmax in Sprague-Dawley rat plasma at 6 mg/kg, po by UPLC-MS/MS analysis
Assay type: ADME, organism-based
Design: dose 6 mg/kg, route oral
# maps each entry to its Cmax
Field: numeric (ng/mL). Do not append units.

[
  {
    "Compound": "CC(c1cc2cc(-c3cnn(C)c3)cnc2cc1F)n1nnc2ncc(-c3ccc(C(N)=O)c(F)c3)nc21 (configuration not stated)",
    "Unit Annotation": "ng/mL",
    "Cmax": 98.9
  }
]

Query compound follows.
## Input Name the recorded Cmax of the compound listed here: CC(c1cc2cc(-c3cnn(C)c3)cnc2cc1F)n1nnc2ncc(-c3cnn(CCO)c3)nc21 (stereo in doubt; 14)
## Output 135

* * *

Target Desc: Platelet-derived growth factor receptor alpha (Homo sapiens)
Sequence (P16234 whole entry): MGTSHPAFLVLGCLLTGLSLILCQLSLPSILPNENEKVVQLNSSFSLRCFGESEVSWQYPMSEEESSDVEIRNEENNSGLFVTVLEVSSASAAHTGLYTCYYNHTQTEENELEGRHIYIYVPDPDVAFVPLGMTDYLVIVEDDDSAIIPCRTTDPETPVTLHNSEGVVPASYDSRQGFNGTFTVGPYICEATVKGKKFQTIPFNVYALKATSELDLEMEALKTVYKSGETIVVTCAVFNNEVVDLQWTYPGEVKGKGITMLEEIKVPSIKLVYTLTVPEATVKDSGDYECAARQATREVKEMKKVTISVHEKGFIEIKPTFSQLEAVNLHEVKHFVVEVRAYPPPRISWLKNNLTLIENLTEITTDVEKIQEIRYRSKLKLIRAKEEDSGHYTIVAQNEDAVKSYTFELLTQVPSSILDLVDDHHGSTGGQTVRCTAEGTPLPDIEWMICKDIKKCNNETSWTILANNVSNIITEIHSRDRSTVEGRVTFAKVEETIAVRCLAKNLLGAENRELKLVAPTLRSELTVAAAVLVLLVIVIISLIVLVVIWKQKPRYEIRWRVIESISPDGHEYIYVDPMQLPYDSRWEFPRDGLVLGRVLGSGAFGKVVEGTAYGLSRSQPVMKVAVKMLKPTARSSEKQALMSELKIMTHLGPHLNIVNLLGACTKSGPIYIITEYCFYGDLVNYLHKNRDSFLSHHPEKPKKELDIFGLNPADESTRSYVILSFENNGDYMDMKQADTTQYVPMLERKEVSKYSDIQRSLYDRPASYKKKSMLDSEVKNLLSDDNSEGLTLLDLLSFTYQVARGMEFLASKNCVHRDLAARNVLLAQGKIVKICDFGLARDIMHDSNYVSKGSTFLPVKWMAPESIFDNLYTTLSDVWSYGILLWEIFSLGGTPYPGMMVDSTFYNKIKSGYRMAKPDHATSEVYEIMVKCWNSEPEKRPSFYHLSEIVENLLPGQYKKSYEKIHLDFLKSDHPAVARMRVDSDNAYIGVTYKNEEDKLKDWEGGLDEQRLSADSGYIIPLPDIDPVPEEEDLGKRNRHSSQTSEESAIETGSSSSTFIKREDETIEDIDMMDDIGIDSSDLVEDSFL
Assay Method Text: Inhibition of PDGFRalpha (unknown origin) using FAM-labeled peptide as substrate preincubated for 5 to 10 mins followed by substrate/ATP addition measured after 30 to 60 mins by mobility shift assay
Readout Type: IC50 (nM)
Field: numeric (nM). Do not append units.

## Input Name the recorded IC50 of the compound listed here: CC(c1cc2cc(-c3cnn(C)c3)cnc2cc1F)n1nnc2ncc(-c3cnn(CCO)c3)nc21 (stereo in doubt; 14)
## Output 2360
